- Tested on: U87MG (human glioblastoma cell)
- experimental_protocol: MTT in vitro cytotoxicity, U87MG
- Type: cell-based
- test_settings: U-87 MG, 72 hr incubation
measure: pIC50
Answers are plain numbers, as −log10 of the molar value.

Here's what some known entries look like.
Cc1ccc2c3c(c4ccccc4nc13)C(=O)N2CCN(C)C	6.02
Cc1ccc2nc3cccc4c3c(c2c1)C(=O)N4CCCN(C)C	5.66

Kindly review the next compound as well.
Fill in pIC50 for record Cc1ccc2nc3cccc4c3c(c2c1)C(=O)N4CCN(C)C
5.69

Taken from patent US9643968B2.
